# testMethodNotes: In vivo pharmacokinetics study in cynomolgus monkeys
# measurementContext: male, cynomolgus monkey, plasma; cynomolgus monkeys, oral 15 mg/kg; read-out: AUC
readoutType: AUC (ng·h/mL)
Give your result in ng·h/mL as a bare value.

What does the record list as AUC for CCOc1cc2ncc(C#N)c(Nc3ccc(OCc4ccccn4)c(Cl)c3)c2cc1NC(=O)/C=C/[C@H]1CCCN1C [Pyrotinib, reference compound] ?
325

----------
# systemName: CYP2D6 (Homo sapiens)
# Construct: A system of 100 μL human liver microsomes; from tissue; host or cells: human liver microsomes
# Sequence (P10635 whole entry): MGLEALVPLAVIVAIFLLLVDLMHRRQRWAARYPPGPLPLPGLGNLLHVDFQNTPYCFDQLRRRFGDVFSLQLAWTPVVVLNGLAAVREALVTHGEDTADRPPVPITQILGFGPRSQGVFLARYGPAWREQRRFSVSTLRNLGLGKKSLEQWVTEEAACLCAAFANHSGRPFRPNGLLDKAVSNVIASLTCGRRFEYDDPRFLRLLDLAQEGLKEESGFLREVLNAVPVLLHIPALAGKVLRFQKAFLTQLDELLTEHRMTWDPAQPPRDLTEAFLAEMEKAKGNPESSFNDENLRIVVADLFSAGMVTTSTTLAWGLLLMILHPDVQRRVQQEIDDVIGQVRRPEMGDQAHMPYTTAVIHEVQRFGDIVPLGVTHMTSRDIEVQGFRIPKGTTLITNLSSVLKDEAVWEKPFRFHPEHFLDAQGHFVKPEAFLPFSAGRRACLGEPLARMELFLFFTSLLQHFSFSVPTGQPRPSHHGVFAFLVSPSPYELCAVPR
# testMethodNotes: Direct inhibition (DI) of CYP2D6 in human liver microsomes
# Format: in vitro ADME
# measurementContext: probe Dextromethorphan, human liver microsomes 0.2 mg/mL, 10 μM compound, read-out: Direct inhibition (DI) 2D6 (Dextromethorphan)
readoutType: inhibition at 20 min, 10 µM (%)
Give your result in % as a bare value.

smilesrepresentation=Cc1cc(Nc2ncnc3ccc(NC(=O)/C=C/[C@H]4CCCN4C)cc23)ccc1Oc1ccc2nccn2n1 measuredvalue=46
smilesrepresentation=Cc1cc(Nc2ncnc3ccc(NC(=O)/C=C/[C@H]4CCCN4)cc23)ccc1Oc1ccn2ncnc2c1 measuredvalue=60

Then this compound:
Write down the reported inhibition at 20 min, 10 µM of CCOc1cc2ncc(C#N)c(Nc3ccc(Oc4cc5nncn5cn4)c(C)c3)c2cc1NC(=O)/C=C/[C@H]1CCCN1 , test system: CYP2D6 (Homo sapiens).
6
